System: lymphoma cell lines (OCI-Ly8 LAM53, SU-DHL-4 and Raji)
Assay: Viability of lymphoma cell lines in vitro
Assay type: cell-based, human
MEASURE_NAME: viability of lymphoma cell lines in vitro

Nc1cccc2c1CN(C1CCC(=O)NC1=O)C2=O (racemic) [lenalidomide]: no effect
O=C1CCC(N2C(=O)c3ccccc3C2=O)C(=O)N1 (racemic) [thalidomide]: no effect

====

Test system: PBL
Test: Cell viability by DiOC6 staining, flow cytometry: PBL of healthy individuals
Assay type: cell-based, human
MEASURE_NAME: effect on normal PBL

Cc1cc(C2CCCCC2)n(O)c(=O)c1: marginal
Nc1cccc2c1CN(C1CCC(=O)NC1=O)C2=O (racemic) [lenalidomide]: marginal
Cc1cc(CC(C)CC(C)(C)C)n(O)c(=O)c1 (stereo not shown): marginal
